Values from patent US20230302159A1

Assay: Fluorescence properties of the CypH dyes at pH 5.0 and pH 7.5 (Table 2)
Type: physicochemical
Settings: pH 5.0
MEASUREMENT TYPE: FL Intensity pH 5.0
# answer = number (no unit)

Per the records, this compound ( CCN(CC)c1ccc(OC2=C(/C=C/C3=[N+](C)c4ccccc4C3(C)C)CCC/C2=C\C=C2\N(C)c3ccccc3C2(C)C)cc1.[Cl-] ) has FL Intensity pH 5.0 equal to 5627

Per the records, this compound ( CC(C)CN1/C(=C/C=C2\CCCC(/C=C/C3=[N+](CC(C)C)c4ccccc4C3(C)C)=C2Oc2ccc(N(C)C)cc2)C(C)(C)c2ccccc21.[I-] ) has FL Intensity pH 5.0 equal to 3137

Per the records, this compound ( CCN(C)c1ccc(OC2=C(/C=C/C3=[N+](CC(C)C)c4ccccc4C3(C)C)CCC/C2=C\C=C2\N(CC(C)C)c3ccccc3C2(C)C)cc1.[I-] ) has FL Intensity pH 5.0 equal to 3646

Per the records, this compound ( CC(C)CN1/C(=C/C=C2\CCCC(/C=C/C3=[N+](CC(C)C)c4ccccc4C3(C)C)=C2Oc2ccc(N(C)C(C)C)cc2)C(C)(C)c2ccccc21.[I-] ) has FL Intensity pH 5.0 equal to 4204

Per the records, this compound ( CCN(C)c1ccc(OC2=C(/C=C/C3=[N+](CC)c4ccccc4C3(C)C)CCC/C2=C\C=C2\N(CC)c3ccccc3C2(C)C)cc1 ) has FL Intensity pH 5.0 equal to 5681

Per the records, this compound ( CCN1/C(=C/C=C2\CCCC(/C=C/C3=[N+](CC)c4ccccc4C3(C)C)=C2Oc2ccc(N(C)C)cc2)C(C)(C)c2ccccc21 ) has FL Intensity pH 5.0 equal to 4254

Per the records, this compound ( CCN(C)c1ccc(OC2=C(/C=C/C3=[N+](C)c4ccccc4C3(C)C)CCC/C2=C\C=C2\N(C)c3ccccc3C2(C)C)cc1 ) has FL Intensity pH 5.0 equal to 5089

Per the records, this compound ( CCCN1/C(=C/C=C2\CCCC(/C=C/C3=[N+](CCC)c4ccccc4C3(C)C)=C2Oc2ccc(N(C)C(C)C)cc2)C(C)(C)c2ccccc21.[I-] ) has FL Intensity pH 5.0 equal to 4847

Per the records, this compound ( CCCN1/C(=C/C=C2\CCCC(/C=C/C3=[N+](CCC)c4ccccc4C3(C)C)=C2Oc2ccc(N(C)CC)cc2)C(C)(C)c2ccccc21.[I-] ) has FL Intensity pH 5.0 equal to 4553

Per the records, this compound ( CN(C)c1ccc(OC2=C(/C=C/C3=[N+](C)c4ccccc4C3(C)C)CC/C2=C\C=C2\N(C)c3ccccc3C2(C)C)cc1.[Cl-] ) has FL Intensity pH 5.0 equal to 1924

Per the records, this compound ( CN(C)c1ccc(OC2=C(/C=C/C3=[N+](C)c4ccccc4C3(C)C)CCC/C2=C\C=C2\N(C)c3ccccc3C2(C)C)cc1.[Cl-] [CypH-1, reference compound] ) has FL Intensity pH 5.0 equal to 3363

Per the records, this compound ( CCN(C)c1ccc(OC2=C(/C=C/C3=[N+](CCCS(=O)(=O)[O-])c4ccccc4C3(C)C)CCC/C2=C\C=C2\N(CCCS(=O)(=O)[O-])c3ccccc3C2(C)C)cc1.[Na+] ) has FL Intensity pH 5.0 equal to 4359
